src = ChEMBL document CHEMBL1926614

Please provide measured inhibition of growth at 10 µM for the entries that follow.
system: UACC-257; experiment: Growth inhibition of human UACC257 cells at 10 uM after 48 hrs by coulter counting; assay type: functional; conditions: UACC-257, 48 h, read-out: GI

CC1=CSC2=NC3=C(CCC/C3=C\c3ccccc3)C(c3ccccc3)N12 (centres undefined) : > 10%
COc1cc(/C=C2\CCCC3=C2N=C2SC=C(C)N2C3c2cc(OC)c(OC)c(OC)c2)cc(OC)c1OC (centres undefined) : > 10%
CCN1CC2=C(N=C3SC=C(C)N3C2c2cccs2)/C(=C/c2cccs2)C1 (centres undefined) : > 10%

Working through the 4 molecules below one at a time, give inhibition of growth at 10 µM for each.
1. CCN1CC2=C(N=C3SC=CN3C2c2ccc(OC)c(OC)c2)/C(=C/c2ccc(OC)c(OC)c2)C1 (centres undefined)
2. CCN1CC2=C(N=C3SC=C(C)N3C2c2ccc(OC)cc2)/C(=C/c2ccc(OC)cc2)C1 (centres undefined)
3. C1=CN2C(=NC3=C(CCC/C3=C\c3cccs3)C2c2cccs2)S1 (centres undefined)
4. CCN1CC2=C(N=C3SC=CN3C2c2ccc(OC)cc2)/C(=C/c2ccc(OC)cc2)C1 (centres undefined)

1. 63.2%
2. > 10%
3. > 10%
4. 44.8%

Working through the 2 molecules below one at a time, give inhibition of growth at 10 µM for each.
1. COc1ccc(/C=C2\CCCC3=C2N=C2SC=CN2C3c2ccc(OC)cc2)cc1 (centres undefined)
2. COc1ccc(/C=C2\CCCC3=C2N=C2SC=CN2C3c2ccc(OC)c(OC)c2)cc1OC (centres undefined)

> 10%
10.5%

----------
tested on: SN12C; assay: Growth inhibition of human SN12C cells at 10 uM after 48 hrs by coulter counting; assay type: functional; details: read-out: GI
measured_quantity: inhibition of growth at 10 µM (%)
Give bare numbers, in %.

# example entries with known answers
CCN1CC2=C(N=C3SC=CN3C2c2ccc(OC)cc2)/C(=C/c2ccc(OC)cc2)C1 (stereo unspecified) : 96.9
CCN1CC2=C(N=C3SC=CN3C2c2ccc(OC)c(OC)c2)/C(=C/c2ccc(OC)c(OC)c2)C1 (stereo unspecified) : 83.1

Could you now look at the following molecule, please?
What inhibition of growth at 10 µM value was documented for this molecule, CCN1CC2=C(N=C3SC=C(C)N3C2c2ccc(OC)c(OC)c2)/C(=C/c2ccc(OC)c(OC)c2)C1 (stereo unspecified) ?
93.7

----------
Please provide measured CC50 for the entries that follow.
assay: Cytotoxicity against human ovarian cancer cells after 48 hrs by coulter counting; format: functional; settings: Cancer cell lines, read-out: LC50 (the source's name)

# example entries with known answers
O=c1[nH]cc(F)c(=O)[nH]1 [FLUOROURACIL] : > 100 µM
CCN1CC2=C(N=C3SC=C(C)N3C2c2ccc(OC)c(OC)c2)/C(=C/c2ccc(OC)c(OC)c2)C1 (stereo not drawn) : > 100 µM

Could you now look at the following molecule, please?
What CC50 value was documented for this molecule, COc1cc(/C=C2\CCCC3=C2N=C2SC=CN2C3c2cc(OC)c(OC)c(OC)c2)cc(OC)c1OC (stereo not drawn) ?
> 100 µM

----------
test system: SN12C; assay: Growth inhibition of human SN12C cells at 10 uM after 48 hrs by coulter counting; type: functional; conditions: read-out: GI
Please provide measured inhibition of growth at 10 µM for the entries that follow.

Working through the 3 compounds below one at a time, give inhibition of growth at 10 µM for each.
1. CCN1CC2=C(N=C3SC=C(C)N3C2c2ccc(OC)cc2)/C(=C/c2ccc(OC)cc2)C1 (stereo not drawn)
2. CCN1CC2=C(N=C3SC=C(C)N3C2c2cccs2)/C(=C/c2cccs2)C1 (stereo not drawn)
3. CCN1CC2=C(N=C3SC=CN3C2c2cccs2)/C(=C/c2cccs2)C1 (stereo not drawn)

["> 10%", "> 10%", "> 10%"]
